Data credit: patent US20060024289

Item-by-item account of Km
Target: T1, Ac-IEPD-AMC
T1 chain: XIEPDX
Experiment: Michaelis-Menten kinetics of fluorogenic tetrapeptide hydrolysis
A number alone suffices; assume µM.

Example cases with answers are listed next.
[
  {
    "protein": "rat granzyme B N218T (protein) IIGGHEAKPHSRPYMAYLQIMDEYSGSKKCGGFLIREDFVLTAAHCSGSKINVTLGAHNIKEQEKMQQIIPVVKIIPHPAYNSKTISNDIMLLKLKSKAKRSSAVKPLNLPRRNVKVKPGDVCYVAGWGKLGPMGKYSDTLQEVELTVQEDQKCESYLKNYFDKANEICAGDPKIKRASFRGDSGGPLVCKKVAAGIVSYGQTDGSTPRAFTKVSTFLSWIKKTMKKS",
    "units-of-measure": "µM",
    "result-number": 580
  },
  {
    "protein": "rat granzyme B I99A/N218A (protein) IIGGHEAKPHSRPYMAYLQIMDEYSGSKKCGGFLIREDFVLTAAHCSGSKINVTLGAHNIKEQEKMQQIIPVVKIIPHPAYNSKTASNDIMLLKLKSKAKRSSAVKPLNLPRRNVKVKPGDVCYVAGWGKLGPMGKYSDTLQEVELTVQEDQKCESYLKNYFDKANEICAGDPKIKRASFRGDSGGPLVCKKVAAGIVSYGQADGSTPRAFTKVSTFLSWIKKTMKKS",
    "units-of-measure": "µM",
    "result-number": 2700
  }
]

Now examine the next entry.
Value of Km reported for the protein wild-type rat granzyme B (protein) IIGGHEAKPHSRPYMAYLQIMDEYSGSKKCGGFLIREDFVLTAAHCSGSKINVTLGAHNIKEQEKMQQIIPVVKIIPHPAYNSKTISNDIMLLKLKSKAKRSSAVKPLNLPRRNVKVKPGDVCYVAGWGKLGPMGKYSDTLQEVELTVQEDQKCESYLKNYFDKANEICAGDPKIKRASFRGDSGGPLVCKKVAAGIVSYGQNDGSTPRAFTKVSTFLSWIKKTMKK is 370
